Cited source: patent US20160002357A1

molecular target: T1, P-cadherin-ECD1-3-Fc protein (human P-cadherin-Fc) (human, UniProt P22223 108-440); assay: phage scFv ELISA, coated P-cadherin-ECD1-3-Fc
T1 construct: Construct was expressed with signal peptide and pro-peptide (PACE co-transfected to process the propeptide); not shown: hinge and CH2 and CH3 domains of human IgG1
T1 sequence (P22223 108-440): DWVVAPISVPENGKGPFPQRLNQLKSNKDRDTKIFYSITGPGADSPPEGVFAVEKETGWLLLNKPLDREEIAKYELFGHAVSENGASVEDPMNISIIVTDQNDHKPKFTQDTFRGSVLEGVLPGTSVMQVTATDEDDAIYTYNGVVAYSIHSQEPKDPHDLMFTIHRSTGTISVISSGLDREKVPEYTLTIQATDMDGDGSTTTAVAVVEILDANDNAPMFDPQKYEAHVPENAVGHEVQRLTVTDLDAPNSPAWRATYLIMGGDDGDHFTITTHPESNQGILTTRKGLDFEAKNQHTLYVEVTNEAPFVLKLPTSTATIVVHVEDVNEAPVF
Classify: true (1) when Z Score is strictly less than 0.9; false (0) when Z Score is not.

(Q) API: query returns whether the binder falls strictly under 0.9 in Z Score. Query: anti-P-cadherin scFv 153 alanine-mutant L1.5-Ala (scFv, V domains shown, scFv on phage) VH: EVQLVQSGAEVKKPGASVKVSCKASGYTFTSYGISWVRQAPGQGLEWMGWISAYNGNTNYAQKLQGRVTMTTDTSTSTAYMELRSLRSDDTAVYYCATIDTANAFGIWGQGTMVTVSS VL: QSVLTQPPSVSAAPGQKVTISCSGSSANIGNNYVSWYQQLPGTAPKLLIYDNNKRPSGIPDRFSGSKSGTSATLGITGLQTGDEADYYCGTWDSSLSGVVFGGGTKLTVL
(A) true (1)

(Q) Field: below-cutoff. Rule: recorded Z Score strictly less than 0.9. Subject: anti-P-cadherin scFv 153 alanine-mutant L2.6-Ala (scFv, V domains shown, scFv on phage) VH: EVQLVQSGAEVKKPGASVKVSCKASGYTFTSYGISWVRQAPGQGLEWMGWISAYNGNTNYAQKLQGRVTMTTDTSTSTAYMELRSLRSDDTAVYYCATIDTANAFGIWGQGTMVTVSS VL: QSVLTQPPSVSAAPGQKVTISCSGSSSNIGNNYVSWYQQLPGTAPKLLIYDNNKRASGIPDRFSGSKSGTSATLGITGLQTGDEADYYCGTWDSSLSGVVFGGGTKLTVL
(A) false (0)

(Q) I'd appreciate it if you could check whether anti-P-cadherin scFv 153 alanine-mutant L1.1-Ala (scFv, V domains shown, scFv on phage) VH: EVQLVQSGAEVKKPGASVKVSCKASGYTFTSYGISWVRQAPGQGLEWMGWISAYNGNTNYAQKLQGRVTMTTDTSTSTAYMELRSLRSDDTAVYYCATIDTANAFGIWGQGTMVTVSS VL: QSVLTQPPSVSAAPGQKVTISCAGSSSNIGNNYVSWYQQLPGTAPKLLIYDNNKRPSGIPDRFSGSKSGTSATLGITGLQTGDEADYYCGTWDSSLSGVVFGGGTKLTVL has Z Score smaller than 0.9.
(A) false (0)

(Q) Lab note: confirm whether the reported Z Score for this binder is below 0.9, equality not counting. binder: anti-P-cadherin scFv 153 alanine-mutant L3.7-Ala (scFv, V domains shown, scFv on phage) VH: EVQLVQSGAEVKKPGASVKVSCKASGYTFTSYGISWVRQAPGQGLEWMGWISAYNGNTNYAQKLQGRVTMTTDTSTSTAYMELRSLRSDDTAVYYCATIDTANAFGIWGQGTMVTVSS VL: QSVLTQPPSVSAAPGQKVTISCSGSSSNIGNNYVSWYQQLPGTAPKLLIYDNNKRPSGIPDRFSGSKSGTSATLGITGLQTGDEADYYCGTWDSSASGVVFGGGTKLTVL
(A) false (0)

(Q) Does the reported Z Score of the following binder sit strictly below 0.9? anti-P-cadherin scFv 153 alanine-mutant L3.3-Ala (scFv, V domains shown, scFv on phage) VH: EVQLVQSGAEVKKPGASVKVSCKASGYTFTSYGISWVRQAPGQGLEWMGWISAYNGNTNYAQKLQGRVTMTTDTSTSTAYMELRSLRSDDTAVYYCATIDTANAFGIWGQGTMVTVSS VL: QSVLTQPPSVSAAPGQKVTISCSGSSSNIGNNYVSWYQQLPGTAPKLLIYDNNKRPSGIPDRFSGSKSGTSATLGITGLQTGDEADYYCGTADSSLSGVVFGGGTKLTVL
(A) true (1)

(Q) Strictly below 0.9: is that where Z Score of anti-P-cadherin scFv 153 alanine-mutant L1.4-Ala (scFv, V domains shown, scFv on phage) VH: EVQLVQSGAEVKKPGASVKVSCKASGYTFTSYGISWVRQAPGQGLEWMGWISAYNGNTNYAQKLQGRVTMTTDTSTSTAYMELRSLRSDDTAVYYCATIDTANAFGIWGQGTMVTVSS VL: QSVLTQPPSVSAAPGQKVTISCSGSASNIGNNYVSWYQQLPGTAPKLLIYDNNKRPSGIPDRFSGSKSGTSATLGITGLQTGDEADYYCGTWDSSLSGVVFGGGTKLTVL sits?
(A) false (0)

(Q) In plain terms, does anti-P-cadherin scFv 153 alanine-mutant L3.5-Ala (scFv, V domains shown, scFv on phage) VH: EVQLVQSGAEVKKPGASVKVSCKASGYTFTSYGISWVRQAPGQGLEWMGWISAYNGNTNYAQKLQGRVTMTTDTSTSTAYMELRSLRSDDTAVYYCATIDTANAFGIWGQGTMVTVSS VL: QSVLTQPPSVSAAPGQKVTISCSGSSSNIGNNYVSWYQQLPGTAPKLLIYDNNKRPSGIPDRFSGSKSGTSATLGITGLQTGDEADYYCGTWDASLSGVVFGGGTKLTVL come in under 0.9 for Z Score?
(A) false (0)

(Q) Is the reported Z Score for anti-P-cadherin scFv 153 alanine-mutant L3.1-Ala (scFv, V domains shown, scFv on phage) VH: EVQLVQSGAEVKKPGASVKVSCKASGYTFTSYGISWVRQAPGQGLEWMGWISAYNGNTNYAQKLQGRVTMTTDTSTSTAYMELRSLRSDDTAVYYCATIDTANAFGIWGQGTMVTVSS VL: QSVLTQPPSVSAAPGQKVTISCSGSSSNIGNNYVSWYQQLPGTAPKLLIYDNNKRPSGIPDRFSGSKSGTSATLGITGLQTGDEADYYCATWDSSLSGVVFGGGTKLTVL strictly below 0.9?
(A) false (0)

(Q) Does this binder meet the criterion Z Score < 0.9? anti-P-cadherin scFv 153 alanine-mutant L2.1-Ala (scFv, V domains shown, scFv on phage) VH: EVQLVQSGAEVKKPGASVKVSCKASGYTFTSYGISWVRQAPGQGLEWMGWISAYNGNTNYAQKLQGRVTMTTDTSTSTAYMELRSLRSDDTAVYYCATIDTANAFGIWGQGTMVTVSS VL: QSVLTQPPSVSAAPGQKVTISCSGSSSNIGNNYVSWYQQLPGTAPKLLIYANNKRPSGIPDRFSGSKSGTSATLGITGLQTGDEADYYCGTWDSSLSGVVFGGGTKLTVL
(A) true (1)
